Test system: Cor.4U hiPSC-CMs
Assay: ATP level (CellTiter-Glo) in hiPSC-CMs
Assay type: cell-based, human
Conditions: day 1, different doses, RNAseq conditions
Protocol: ATP content was measured using the CellTiter-Glo Luminescent Cell Viability Assay (Promega) following the manufacturer’s protocol. After adding CellTiter-Glo reagents and incubation, luminescence was quantified using a Synergy H1 plate reader (BioTek Instruments). ATP standards were prepared from 0.01 to 5 μM. […] To rank the cellular toxicity of the eight TKIs (Fig 1T), we calculated (EC50-Cmax)/(EC50+Cmax) and arranged from the smallest to the biggest for increasing cellular toxicity.
value-kind: dose-dependent toxicity (ATP fold changes)

Cc1ccc(C(=O)Nc2ccc(CN3CCN(C)CC3)c(C(F)(F)F)c2)cc1C#Cc1cnc2cccnn12 [ponatinib]
dose-dependent toxicity
CCN(CC)CCNC(=O)c1c(C)[nH]c(/C=C2\C(=O)Nc3ccc(F)cc32)c1C [sunitinib]
dose-dependent toxicity
C[C@@H](Oc1cc(-c2cnn(C3CCNCC3)c2)cnc1N)c1c(Cl)ccc(F)c1Cl [crizotinib]
dose-dependent toxicity
COc1cc2ncnc(Nc3ccc(F)c(Cl)c3)c2cc1OCCCN1CCOCC1 [gefitinib]
did not
Cc1nc(Nc2ncc(C(=O)Nc3c(C)cccc3Cl)s2)cc(N2CCN(CCO)CC2)n1 [dasatinib]
did not

q: Fill blank: measured dose-dependent toxicity (ATP fold changes) of the compound CN(C)C/C=C/C(=O)Nc1cc2c(Nc3ccc(F)c(Cl)c3)ncnc2cc1O[C@H]1CCOC1 [afatinib] is ____.
a: dose-dependent toxicity
